- System: ELT3-TSC2 cells
- Assay Explanation: 10-point dose response viability (CellTiter-Glo, 72 hours)
- Assay type: cell-based
- Conditions Used: Rattus norvegicus; ELT3 rescue line; average of two experiments
Assay Endpoint: IC50 (nM)
A number alone suffices; assume nM.

Which measured IC50 value corresponds to Cc1cccc(/C=N/Nc2cc(N3CCOCC3)nc(OCCc3ccccn3)n2)c1 [apilimod] ?
16.1

* * *

- Test system: renal clear cell carcinoma cell line RCC-FG2
- Assay Explanation: Antiproliferative single treatment study (CellTiterGlo, 120 h)
- Format: cell-based
- Conditions Used: read-out: IC50 (Avg., n=2); RCC-FG2, 120 h
Assay Endpoint: IC50

# value lookup — system renal clear cell carcinoma cell line RCC-FG2, readout IC50, item Cc1cccc(/C=N/Nc2cc(N3CCOCC3)nc(OCCc3ccccn3)n2)c1
32 nM
